- targetEntity: T1, tetrameric human PD-L1 (PD-L1-streptavidin-His tag) (human, UniProt Q9NZQ7 19-238, Alexa-488 label (labelled form used in Example 3 ELISA and in all flow cytometry))
- T1 construct: range 19-238; Expressed in HEK293F, purified on Ni-NTA; both are kept as one molecule; also called PD-L1 tetramer; tetrameric PD-L1-streptavidin; not shown: GS linker between PD-L1 and streptavidin; streptavidin fused at the C-terminal of PD-L1 to induce tetramerization; His tag
- T1 sequence (Q9NZQ7 19-238): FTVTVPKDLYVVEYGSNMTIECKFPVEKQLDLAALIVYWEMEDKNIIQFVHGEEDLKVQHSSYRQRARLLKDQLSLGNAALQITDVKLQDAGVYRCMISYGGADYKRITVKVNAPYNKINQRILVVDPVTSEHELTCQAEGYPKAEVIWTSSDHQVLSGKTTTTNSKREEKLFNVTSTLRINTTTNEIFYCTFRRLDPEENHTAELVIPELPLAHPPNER
- experimentNotes: flow cytometry of E. coli spheroplasts with tetrameric PD-L1-Alexa488

{"columns": ["binder", "binding result"],
 "data": [
  ["PD-1 variant JY101, N1S/F13I/L17M/S36P/M46I/C69T/G79R/G100V/L114P/A139L, displayed on E. coli (receptor, From the secondary library on CKJ 41T; also called APD1-JY 101; not shown: NlpA signal peptide / inner membrane anchor of the pMopac12-NlpA-FLAG vector; FLAG tag) SDSPDRPWNPPTISPAMLVVTEGDNATFTCSFSNTPESFVLNWYRISPSNQTDKLAAFPEDRSQPGQDTRFRVTQLPNRRDFHMSVVRARRNDSGTYLCVAISLAPKAQIKESPRAELRVTERRAEVPTAHPSPSPRPLGQFQ", "binds"]
]}
